Where do these numbers come from? They come from the NIST ThermoML archive (doi:10.1016/j.jct.2019.02.027).

In this section, each of the compounds is paired with its reported mass density.
conditions: 298.15 K; 101.33 kPa; Liquid; Vibrating tube method

{"COMPOUND": "CCCCCO", "mass density / kg/m3": 810.9}
{"COMPOUND": "CCCC(C)O (centres undefined)", "mass density / kg/m3": 806.48}
{"COMPOUND": "CCO", "mass density / kg/m3": 785.45}
{"COMPOUND": "CCC(C)O (centres undefined)", "mass density / kg/m3": 802.88}
{"COMPOUND": "CCCO", "mass density / kg/m3": 799.97}
{"COMPOUND": "O=Cc1ccco1", "mass density / kg/m3": 1155.45}
{"COMPOUND": "CCCCCCO", "mass density / kg/m3": 815.9}
{"COMPOUND": "Cc1ccco1", "mass density / kg/m3": 910.73}
{"COMPOUND": "CC(C)O", "mass density / kg/m3": 780.95}
